Assay: chemical genetic growth profiling, strain panel (AID 1159580);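 note: tested at 20 µM; growth read once vehicle control cultures reached saturation at 30 °C; 1 = growth at the plate median or of vehicle wells; lower values mean less growth of the strain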
Conditions: S. cerevisiae deletion strains, growth OD, locus YPL209C, strain IPL1, active compounds read low
Screen size: about 5,500 compounds; about 2,000 (36%) were called active. Inconclusive results (about 18%) are left out. The list shows a part of the results.
Attribute measured: normalized growth
When you answer, write just the number.

Entry "Fc1ccc(NC(=S)N2CCCN(Cc3ccc(Cl)cc3Cl)CC2)cc1" , normalized growth reported as 0.983

Entry "Cc1nc(-c2ccccn2)[nH]c(=O)c1Cc1c(Cl)cccc1Cl" , normalized growth reported as 0.956

Entry "COC(=O)c1cnn(-c2c(Cl)cccc2Cl)c1C=C(C#N)C#N" , normalized growth reported as 0.954

Entry "COc1ccc2nc3ccccc3c(N)c2c1" , normalized growth reported as 0.624

Entry O=C(NCC1COc2ccccc2O1)c1ccc(Cl)cc1 (stereo unspecified) , normalized growth reported as 0.952

Entry "CCCc1nc(-c2ccccn2)[nH]c(=O)c1CC1CC1" , normalized growth reported as 0.958

Entry "C=CCc1c(CCC)nc(-c2ccccn2)[nH]c1=O" , normalized growth reported as 0.94

Entry "O=[N+]([O-])c1cnc(Sc2nnc(SCc3cccc(C(F)(F)F)c3)s2)s1" , normalized growth reported as 0.0842

Entry "O=[N+]([O-])c1ccc(S(=O)(=O)c2ccccc2)nc1S(=O)(=O)c1ccccc1" , normalized growth reported as 0.913

Entry "O=S(=O)(NC(=S)Nc1ccc(Cl)c(Cl)c1)c1ccccc1" , normalized growth reported as 0.996

Entry "Clc1cc(Cl)cc(-c2nc(SCc3ccc(Cl)cc3Cl)n[nH]2)c1" , normalized growth reported as 0.985

====

Assay: chemical genetic growth profiling, strain panel (AID 1159580);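 note: tested at 20 µM; growth read once vehicle control cultures reached saturation at 30 °C; 1 = growth at the plate median or of vehicle wells; lower values mean less growth of the strain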
Conditions: S. cerevisiae deletion strains, growth OD, locus YHR129C, strain ARP1, active compounds read low
Among all 5,500 compounds or so, about 2,000 (36%) were called active. Roughly 18% stayed inconclusive and do not appear here. The list shows a part of the results.
Attribute measured: normalized growth
When you answer, write just the number.

Entry "COc1ccc2c(c1)c(CC(=O)OCC(=O)O)c(C)n2C(=O)c1ccc(Cl)cc1" , normalized growth reported as 1

Entry "Nc1c2ccccc2nc2ccccc12" , normalized growth reported as 0.808

Entry "CC(C)(C#N)O[C@@H]1O[C@H](CO)[C@@H](O)[C@H](O)[C@H]1O" , normalized growth reported as 1

Entry "COC(=O)Nc1nc2ccc(C(=O)c3ccccc3)cc2[nH]1" , normalized growth reported as 0.969

Entry "NCCC(=O)N[C@@H](Cc1cnc[nH]1)C(=O)O" , normalized growth reported as 0.994

Entry COc1cccc(OC)c1OCCNCC1COc2ccccc2O1 (stereo not drawn) , normalized growth reported as 1.01

Entry COC(=O)C[C@H]1C(C)(C)C2(O)OC34CC2C(=O)[C@]1(C)C3CC[C@]1(C)C4=CC(=O)O[C@H]1c1ccoc1 (stereo partly drawn) , normalized growth reported as 1

Entry "CNC(=O)O/N=C\C(C)(C)SC" , normalized growth reported as 1.02

====

Experiment: chemical genetic growth profiling, strain panel (AID 1159580);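 note: tested at 20 µM; growth read once vehicle control cultures reached saturation at 30 °C; 1 = growth at the plate median or of vehicle wells; lower values mean less growth of the strain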
Conditions: S. cerevisiae deletion strains, growth OD, locus YMR129W
Hit rate of the full screen: of about 5,500 compounds, about 2,000 (36%) were called active. Another 18% or so got no clear call; they are omitted. No stated cut-off is given here; in the data, active means normalized growth mostly below about 0.91 (no sharp cut-off); inconclusive means no clear call, values can overlap the other calls; inactive means mostly above about 0.92. The list shows a part of the results. Where a SMILES comes first, the peptide text is derived from it. Bridges are numbered along the chain shown (N, C = ends). [ ]: non-standard residue; d: D form. The star is where a group is joined. ξ: configuration not given here. ξDab(CH2SO3H) = NC(CCNCS(=O)(=O)O)C(=O)O; Heptanoyl(6-Me) = CC(C)CCCCC(=O)*; Dab = NCC[CH](N)C(=O)O
Bench note: report the call from active, inactive

q: Identify the outcome logged in this assay for the compound shown: "C[C@@H]1C(=O)O[C@H]2[C@H]1CC[C@@]1(C)C=CC(=O)[C@@]3(C)O[C@@]213"
a: inactive

q: Identify the outcome logged in this assay for the compound shown: COC(=O)Nc1nc2ccc(S(=O)c3ccccc3)cc2[nH]1 (stereo unspecified)
a: inactive

q: Identify the outcome logged in this assay for the compound shown: CCN1C[C@]2(OC(=O)c3ccccc3NC(C)=O)CCC(OC)[C@]34C1[C@H](CC23)[C@@]1(O)CC(OC)[C@H]2CC4C1(O)[C@H]2OC (stereo partly specified)
a: inactive

q: Identify the outcome logged in this assay for the compound shown: CCC(C)C1NC(=O)C(CCNCS(=O)(=O)O)NC(=O)C(NC(=O)C(CCNCS(=O)(=O)O)NC(=O)C(NC(=O)C(CCNCS(=O)(=O)O)NC(=O)CCCCC(C)C)C(C)O)CCNC(=O)C(C(C)O)NC(=O)C(CCNCS(=O)(=O)O)NC(=O)C(CCNCS(=O)(=O)O)NC(=O)C(C(C)CC)NC1=O (stereo unspecified) ({Heptanoyl(6-Me)}-[ξDab(CH2SO3H)]T[ξDab(CH2SO3H)][Dab][ξDab(CH2SO3H)]II[ξDab(CH2SO3H)][ξDab(CH2SO3H)]T; lactam 4-C; configuration not given here)
a: inactive

q: Identify the outcome logged in this assay for the compound shown: CC(C)=CCCC1(C)C=Cc2c(O)c3c(c(CC=C(C)C)c2O1)OC12C(=CCCC1C(C)(C)O[C@@]2(C/C=C(\C)C(=O)O)C(=O)O)C3=O (stereo partly specified)
a: inactive

q: Identify the outcome logged in this assay for the compound shown: "O=C(Nc1ccc(C(=O)O)c(O)c1)c1ccccc1"
a: inactive

q: Identify the outcome logged in this assay for the compound shown: CC1(C)CC[C@]2(C(=O)O)CC[C@]3(C)C(=CCC4[C@@]5(C)CC[C@@H](O)C(C)(C)C5CC[C@]43C)C2C1 (stereo partly specified)
a: inactive

q: Identify the outcome logged in this assay for the compound shown: "Cc1cc(O)cc(O)c1C(=O)O"
a: inactive

q: Identify the outcome logged in this assay for the compound shown: "Cc1cc(O)cc(=O)o1"
a: inactive

q: Identify the outcome logged in this assay for the compound shown: "C/C=C1\[C@H]2C=C(C)C[C@]1(N)c1ccc(=O)[nH]c1C2"
a: inactive

q: Identify the outcome logged in this assay for the compound shown: "CNCc1ccccc1"
a: inactive

q: Identify the outcome logged in this assay for the compound shown: "COC(=O)Nc1nc2ccc(Sc3ccccc3)cc2[nH]1"
a: inactive

q: Identify the outcome logged in this assay for the compound shown: C#C[C@]1(OC(C)=O)CCC2C3CCC4=CC(=O)CC[C@@H]4C3CC[C@@]21C (stereo partly specified)
a: inactive

q: Identify the outcome logged in this assay for the compound shown: "C[C@@H]1CC[C@H]2[C@@H](C)C(=O)O[C@@H]3O[C@@]4(C)CC[C@@H]1[C@]32OO4"
a: active

q: Identify the outcome logged in this assay for the compound shown: "Nc1ccc(S(=O)(=O)Nc2ccnn2-c2ccccc2)cc1"
a: inactive

q: Identify the outcome logged in this assay for the compound shown: CC(C)=CCCC1(C)C=Cc2c(O)c3c(c(CC=C(C)C)c2O1)OC12C(=CC4CC1C(C)(C)OC2(C/C=C(/C)C(=O)O)C4=O)C3=O (stereo unspecified)
a: inactive

====

Exercise: state measured normalized growth for each of the compounds provided.
Test: chemical genetic growth profiling, strain panel (AID 1159580);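 note: tested at 20 µM; growth read once vehicle control cultures reached saturation at 30 °C; 1 = growth at the plate median or of vehicle wells; lower values mean less growth of the strain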
Conditions: S. cerevisiae deletion strains, growth OD, locus YDR388W, active compounds read low
About 2,000 (36%) of roughly 5,500 compounds were called active. Not shown: some 18% with an inconclusive outcome. The list shows a part of the results. Where a SMILES comes first, the peptide text is derived from it. Bridges are numbered along the chain shown (N, C = ends). [ ]: non-standard residue; d: D form. The star is where a group is joined. ξ: configuration not given here. ξDab(CH2SO3H) = NC(CCNCS(=O)(=O)O)C(=O)O; Heptanoyl(6-Me) = CC(C)CCCCC(=O)*; Dab = NCC[CH](N)C(=O)O
When you answer, write just the number.

Entry "COc1ccc2[nH]cc(CCN)c2c1" , normalized growth reported as 0.986

Entry "NC(N)=N/N=C/c1c(Cl)cccc1Cl" , normalized growth reported as 1.01

Entry COc1c(CC(=O)c2cc3c(cc2O)OC(C)(C)C(O)C3)ccc2c1C=CC(C)(C)O2 (configuration not stated) , normalized growth reported as 0.994

Entry "CCOP(=S)(OCC)Oc1nc(Cl)c(Cl)cc1Cl" , normalized growth reported as 0.986

Entry CCC(C)C1NC(=O)C(CCNCS(=O)(=O)O)NC(=O)C(NC(=O)C(CCNCS(=O)(=O)O)NC(=O)C(NC(=O)C(CCNCS(=O)(=O)O)NC(=O)CCCCC(C)C)C(C)O)CCNC(=O)C(C(C)O)NC(=O)C(CCNCS(=O)(=O)O)NC(=O)C(CCNCS(=O)(=O)O)NC(=O)C(C(C)CC)NC1=O (configuration not stated) ({Heptanoyl(6-Me)}-[ξDab(CH2SO3H)]T[ξDab(CH2SO3H)][Dab][ξDab(CH2SO3H)]II[ξDab(CH2SO3H)][ξDab(CH2SO3H)]T; lactam 4-C; configuration not given here) , normalized growth reported as 0.972

Entry "COC1=C[C@@H]2[C@@H]3Cc4ccc(OC)c(O)c4[C@]2(CCN3C)CC1=O" , normalized growth reported as 0.984

Entry Cc1ccc(S(=O)(=O)NC(=O)NN2CC3CCCC3C2)cc1 (configuration not stated) , normalized growth reported as 1.01

Origin of the recorded values: PubChem BioAssay AID1159580
